Below, each of the molecules is paired with its reported EC50 value.
Tgt: Gastrin/cholecystokinin type B receptor (Homo sapiens)
Method: Antagonist activity at CCK2 receptor expressed in HEK293 cells assessed as accumulation of [3H]inositol phosphates by PI assay
Format: functional, cell-based
# unit: nM | format: bare number

CCCC[C@H](NC(=O)[C@H](Cc1c[nH]c2ccccc12)NC(=O)CNC(=O)[C@@H](C)NC(=O)[C@@H](N)Cc1ccc(O)cc1)C(=O)N[C@@H](CC(=O)O)C(=O)N[C@@H](Cc1ccccc1)C(N)=O : 8
CCCC[C@@H](C(=O)N[C@@H](CC(=O)O)C(=O)N[C@@H](Cc1ccccc1)C(N)=O)N(C)C(=O)[C@@H](Cc1c[nH]c2ccccc12)NC(=O)CNC(=O)[C@@H](C)NC(=O)[C@@H](N)Cc1ccc(O)cc1 : 6.6
CCCC[C@H](NC(=O)[C@H](Cc1c[nH]c2ccccc12)NC(=O)CNC(=O)[C@@H](Cc1ccccc1)NC(=O)[C@@H](N)Cc1ccc(O)cc1)C(=O)N[C@@H](CC(=O)O)C(=O)N[C@@H](Cc1ccccc1)C(N)=O : 110
CCCC[C@H](NC(=O)[C@@H](Cc1c[nH]c2ccccc12)NC(=O)CNC(=O)[C@@H](C)NC(=O)[C@@H](N)Cc1ccc(O)cc1)C(=O)N[C@@H](CC(=O)O)C(=O)N[C@@H](Cc1ccccc1)C(N)=O : 330

Could you now look at the following molecule, please?
[in] Can you look up the measured EC50 of `CCCC[C@@H](C(=O)N[C@@H](CC(=O)O)C(=O)N[C@@H](Cc1ccccc1)C(N)=O)N(C)C(=O)[C@H](Cc1c[nH]c2ccccc12)NC(=O)CNC(=O)[C@@H](C)NC(=O)[C@@H](N)Cc1ccc(O)cc1` for me?
[out] 4.6

###

# pKi per record follows
Tgt: Gastrin/cholecystokinin type B receptor (Homo sapiens)
Sequence (P32239 whole entry): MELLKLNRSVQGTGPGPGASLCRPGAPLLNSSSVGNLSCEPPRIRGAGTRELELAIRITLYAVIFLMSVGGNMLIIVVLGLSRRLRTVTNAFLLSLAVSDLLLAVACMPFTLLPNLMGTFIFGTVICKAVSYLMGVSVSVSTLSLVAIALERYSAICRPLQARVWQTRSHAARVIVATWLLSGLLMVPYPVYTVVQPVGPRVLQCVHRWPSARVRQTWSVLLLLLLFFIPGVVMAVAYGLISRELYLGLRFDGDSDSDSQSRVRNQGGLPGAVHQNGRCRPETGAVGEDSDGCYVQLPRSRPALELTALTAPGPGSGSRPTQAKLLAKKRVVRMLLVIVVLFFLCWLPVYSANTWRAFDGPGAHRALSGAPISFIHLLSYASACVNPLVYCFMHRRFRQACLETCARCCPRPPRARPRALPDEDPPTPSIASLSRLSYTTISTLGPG
Worth noting: pKi values are minus log10 of concentrations stated in mol/L.

CCCC[C@@H](C(=O)N[C@@H](CC(=O)O)C(=O)N[C@@H](Cc1ccccc1)C(N)=O)N(C)C(=O)[C@H](Cc1c[nH]c2ccccc12)NC(=O)CNC(=O)[C@H]1CCCN1C(=O)[C@@H](N)Cc1ccc(O)cc1 : 8.57
CCCC[C@@H](C(=O)N[C@@H](CC(=O)O)C(=O)N[C@@H](Cc1ccccc1)C(N)=O)N(C)C(=O)[C@H](Cc1c[nH]c2ccccc12)NC(=O)CNC(=O)[C@@H](Cc1ccccc1)NC(=O)[C@@H](N)Cc1ccc(O)cc1 : 7.82
CCCC[C@@H](C(=O)N[C@@H](CC(=O)O)C(=O)N[C@@H](Cc1ccccc1)C(N)=O)N(C)C(=O)[C@H](Cc1c[nH]c2ccccc12)NC(=O)CNC(=O)[C@@H](C)NC(=O)[C@@H](N)Cc1ccc(O)cc1 : 8.80

[in] Form field: reported pKi of `CCCC[C@@H](C(=O)N[C@@H](CC(=O)O)C(=O)N[C@@H](Cc1ccccc1)C(N)=O)N(C)C(=O)[C@@H](Cc1c[nH]c2ccccc12)NC(=O)CNC(=O)[C@@H](C)NC(=O)[C@@H](N)Cc1ccc(O)cc1`
[out] 8.82

###

Tgt: Delta-type opioid receptor (Homo sapiens, UniProt P41143)
Sequence (P41143 whole entry): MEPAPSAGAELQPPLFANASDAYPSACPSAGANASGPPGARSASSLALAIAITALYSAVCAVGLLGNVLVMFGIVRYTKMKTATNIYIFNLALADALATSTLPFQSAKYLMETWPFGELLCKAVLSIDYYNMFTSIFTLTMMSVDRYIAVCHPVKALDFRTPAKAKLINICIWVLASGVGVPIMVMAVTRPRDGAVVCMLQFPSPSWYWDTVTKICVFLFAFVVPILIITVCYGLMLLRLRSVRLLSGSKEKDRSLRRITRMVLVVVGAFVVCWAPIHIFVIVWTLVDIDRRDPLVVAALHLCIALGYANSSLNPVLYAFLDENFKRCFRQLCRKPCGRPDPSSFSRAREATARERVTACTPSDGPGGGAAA
Method: Activity against [35S]GTP-gamma-S binding to human delta opioid receptor expressed in HN9.10 cells
Readout name: EC50 (nM)
Numbers only here, please. The scale is nM.

Known results for compounds:
CCCC[C@@H](C(=O)N[C@@H](CC(=O)O)C(=O)N[C@@H](Cc1ccccc1)C(N)=O)N(C)C(=O)[C@@H](Cc1c[nH]c2ccccc12)NC(=O)CNC(=O)[C@@H](C)NC(=O)[C@@H](N)Cc1ccc(O)cc1 : 23
CCCC[C@@H](C(=O)N[C@@H](CC(=O)O)C(=O)N[C@@H](Cc1ccccc1)C(N)=O)N(C)C(=O)[C@H](Cc1c[nH]c2ccccc12)NC(=O)CNC(=O)[C@@H](Cc1ccccc1)NC(=O)[C@H](Cc1ccc(O)cc1)NC(=O)[C@@H](N)CC(=O)O : 110

API: the following record is the query input.
[in] Param item = `CCCC[C@@H](C(=O)N[C@@H](CC(=O)O)C(=O)N[C@@H](Cc1ccccc1)C(N)=O)N(C)C(=O)[C@H](Cc1c[nH]c2ccccc12)NC(=O)CNC(=O)[C@@H](C)NC(=O)[C@@H](N)Cc1ccc(O)cc1` ; retrieve measured EC50.
[out] 120
